experiment: recombinant barcode read abundance after kanamycin selection (control-corrected) (log10(CPM+1)); higher = more efficient recombination; sequences stand for … in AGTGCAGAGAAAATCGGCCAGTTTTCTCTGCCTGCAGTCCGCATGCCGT…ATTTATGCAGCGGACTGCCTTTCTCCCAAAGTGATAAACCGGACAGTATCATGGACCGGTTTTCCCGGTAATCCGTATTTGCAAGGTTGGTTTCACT; site = the 11-nt target
Outcome: Criterion met for recombinant barcode read abundance (log10) of at least 0.1; Criterion not met for anything lower.

Completed entries (count: 4):
INSERT INTO assay_data (sequence_entry, class_label) VALUES
  ('TTATAAAATTGGGTTCTAACCTGTTGCCTAT [TTATAAACTAG_LTGcore_AT_RTGcore_AT] (site TTATAAACTAG) (LTG core: AT, RTG core: AT)', 'Criterion met'),
  ('GAGCCCATGTGGGTTCTAACCTGTTGCCTCA [GAGCCCACTAG_LTGcore_TG_RTGcore_TG] (site GAGCCCACTAG) (LTG core: TG, RTG core: TG)', 'Criterion met'),
  ('TGTATTCTCTGGGTTCTAACCTGTTGCCTAG [TGTATTCCTAG_LTGcore_TC_RTGcore_CT] (site TGTATTCCTAG) (LTG core: TC, RTG core: CT)', 'Criterion not met'),
  ('GAGGCCTCTTGGGTTCTAACCTGTTGCCAGA [GAGGCCTCTTG_LTGcore_CT_RTGcore_TC] (site GAGGCCTCTTG) (LTG core: CT, RTG core: TC)', 'Criterion met');

Here is the next item to consider.
Exam item: decide whether the reported recombinant barcode read abundance (log10) for AAACATGGTTGGGTTCTAACCTGTTGCCTAG [AAACATGCTAG_LTGcore_GT_RTGcore_CT] (site AAACATGCTAG) (LTG core: GT, RTG core: CT) is at least 0.1.
Criterion met

Where do these numbers come from? They come from the supplement of paper PMC11208160.
